Origin of values: patent US20260070987A1

biological target: equine FcRn (large alpha subunit p51) / equine beta-2-microglobulin complex, biotinylated (equine) (UniProt P30441); experiment: SPR (Biacore), pH 6
VALUE_KIND: Kd

[[record]]
binder = "equine IgG1 T286L (antibody, part only; not given: variable domains, not shown: another chain or arm of the molecule) constant: ASTTAPKVFALAPGCGTTSDSTVALGCLVSGYFPEPVKVSWNSGSLTSGVHTFPSVLQSSGFYSLSSMVTVPASTWTSETYICNVVHAASNFKVDKRIEPIPDNHQKVCDMSKCPKCPAPELLGGPSVFIFPPNPKDTLMITRTPEVTCVVVDVSQENPDVKFNWYMDGVEVRLATTRPKEEQFNSTYRVVSVLRIQHQDWLSGKEFKCKVNNQALPQPIERTITKTKGRSQEPQVYVLAPHPDELSKSKVSVTCLVKDFYPPEINIEWQSNGQPELETKYSTTQAQQDSDGSYFLYSKLSVDRNRWQQGTTFTCGVMHEALHNHYTQKNVSKNPGK"
reported_value = "12.3 nM"

[[record]]
binder = "equine IgG4 T286P (antibody, part only; not given: variable domains, not shown: another chain or arm of the molecule) constant: ASTTAPKVFPLASHSAATSGSTVALGCLVSSYFPEPVTVSWNSGALTSGVHTFPSVLQSSGLYSLSSMVTVPASSLKSQTYICNVAHPASSTKVDKKIVIKECNGGCPAECLQVGPSVFIFPPKPKDVLMISRTPTVTCVVVDVGHDFPDVQFNWYVDGVETHPATTEPKQEQFNSTYRVVSVLPIQHKDWLSGKEFKCKVNNKALPAPVERTISKPTGQPREPQVYVLAPHRDELSKNKVSVTCLVKDFYPTDIDIEWKSNGQPEPETKYSTTPAQLDSDGSYFLYSKLTVETNRWQQGTTFTCAVMHEALHNHYTEKSVSKSPGK"
reported_value = "5.2 nM"

[[record]]
binder = "equine IgG4 A426K (antibody, part only; not given: variable domains, not shown: another chain or arm of the molecule) constant: ASTTAPKVFPLASHSAATSGSTVALGCLVSSYFPEPVTVSWNSGALTSGVHTFPSVLQSSGLYSLSSMVTVPASSLKSQTYICNVAHPASSTKVDKKIVIKECNGGCPAECLQVGPSVFIFPPKPKDVLMISRTPTVTCVVVDVGHDFPDVQFNWYVDGVETHTATTEPKQEQFNSTYRVVSVLPIQHKDWLSGKEFKCKVNNKALPAPVERTISKPTGQPREPQVYVLAPHRDELSKNKVSVTCLVKDFYPTDIDIEWKSNGQPEPETKYSTTPAQLDSDGSYFLYSKLTVETNRWQQGTTFTCKVMHEALHNHYTEKSVSKSPGK"
reported_value = "14.5 nM"

[[record]]
binder = "equine IgG1 M428W (antibody, part only; not given: variable domains, not shown: another chain or arm of the molecule) constant: ASTTAPKVFALAPGCGTTSDSTVALGCLVSGYFPEPVKVSWNSGSLTSGVHTFPSVLQSSGFYSLSSMVTVPASTWTSETYICNVVHAASNFKVDKRIEPIPDNHQKVCDMSKCPKCPAPELLGGPSVFIFPPNPKDTLMITRTPEVTCVVVDVSQENPDVKFNWYMDGVEVRTATTRPKEEQFNSTYRVVSVLRIQHQDWLSGKEFKCKVNNQALPQPIERTITKTKGRSQEPQVYVLAPHPDELSKSKVSVTCLVKDFYPPEINIEWQSNGQPELETKYSTTQAQQDSDGSYFLYSKLSVDRNRWQQGTTFTCGVWHEALHNHYTQKNVSKNPGK"
reported_value = "31.9 nM"

[[record]]
binder = "equine IgG1 Q311H (antibody, part only; not given: variable domains, not shown: another chain or arm of the molecule) constant: ASTTAPKVFALAPGCGTTSDSTVALGCLVSGYFPEPVKVSWNSGSLTSGVHTFPSVLQSSGFYSLSSMVTVPASTWTSETYICNVVHAASNFKVDKRIEPIPDNHQKVCDMSKCPKCPAPELLGGPSVFIFPPNPKDTLMITRTPEVTCVVVDVSQENPDVKFNWYMDGVEVRTATTRPKEEQFNSTYRVVSVLRIQHHDWLSGKEFKCKVNNQALPQPIERTITKTKGRSQEPQVYVLAPHPDELSKSKVSVTCLVKDFYPPEINIEWQSNGQPELETKYSTTQAQQDSDGSYFLYSKLSVDRNRWQQGTTFTCGVMHEALHNHYTQKNVSKNPGK"
reported_value = "24.3 nM"

[[record]]
binder = "equine IgG4 M428P (antibody, part only; not given: variable domains, not shown: another chain or arm of the molecule) constant: ASTTAPKVFPLASHSAATSGSTVALGCLVSSYFPEPVTVSWNSGALTSGVHTFPSVLQSSGLYSLSSMVTVPASSLKSQTYICNVAHPASSTKVDKKIVIKECNGGCPAECLQVGPSVFIFPPKPKDVLMISRTPTVTCVVVDVGHDFPDVQFNWYVDGVETHTATTEPKQEQFNSTYRVVSVLPIQHKDWLSGKEFKCKVNNKALPAPVERTISKPTGQPREPQVYVLAPHRDELSKNKVSVTCLVKDFYPTDIDIEWKSNGQPEPETKYSTTPAQLDSDGSYFLYSKLTVETNRWQQGTTFTCAVPHEALHNHYTEKSVSKSPGK"
reported_value = "13000 nM"

[[record]]
binder = "equine IgG4 M428S (antibody, part only; not given: variable domains, not shown: another chain or arm of the molecule) constant: ASTTAPKVFPLASHSAATSGSTVALGCLVSSYFPEPVTVSWNSGALTSGVHTFPSVLQSSGLYSLSSMVTVPASSLKSQTYICNVAHPASSTKVDKKIVIKECNGGCPAECLQVGPSVFIFPPKPKDVLMISRTPTVTCVVVDVGHDFPDVQFNWYVDGVETHTATTEPKQEQFNSTYRVVSVLPIQHKDWLSGKEFKCKVNNKALPAPVERTISKPTGQPREPQVYVLAPHRDELSKNKVSVTCLVKDFYPTDIDIEWKSNGQPEPETKYSTTPAQLDSDGSYFLYSKLTVETNRWQQGTTFTCAVSHEALHNHYTEKSVSKSPGK"
reported_value = "40.6 nM"

[[record]]
binder = "equine IgG4 T286V (antibody, part only; not given: variable domains, not shown: another chain or arm of the molecule) constant: ASTTAPKVFPLASHSAATSGSTVALGCLVSSYFPEPVTVSWNSGALTSGVHTFPSVLQSSGLYSLSSMVTVPASSLKSQTYICNVAHPASSTKVDKKIVIKECNGGCPAECLQVGPSVFIFPPKPKDVLMISRTPTVTCVVVDVGHDFPDVQFNWYVDGVETHVATTEPKQEQFNSTYRVVSVLPIQHKDWLSGKEFKCKVNNKALPAPVERTISKPTGQPREPQVYVLAPHRDELSKNKVSVTCLVKDFYPTDIDIEWKSNGQPEPETKYSTTPAQLDSDGSYFLYSKLTVETNRWQQGTTFTCAVMHEALHNHYTEKSVSKSPGK"
reported_value = "15.3 nM"

